Attribution: paper PMC9289672

# Test system: Gram-negative bacteria
# MEASUREMENT DESCRIPTION: Geometric mean of MIC and therapeutic index
# Assay type: cell-based
# RECORDED CONDITIONS: MHC/GM; 128 μm used when 50% hemolysis not observed at 128 μm
Where no end group is shown, it is not given here.
OBSERVED PROPERTY: Therapeutic index (TI), Gram-negative bacteria

ASVVKWLTKWVAKLLK-NH2 [TP(i+4) 1&2&7]
14.25
ASVVNKLTKGVAKLLK-NH2 [TP(i+4) 2]
3.56
ASVVKWWTKWWAKLLK-NH2 [TP(i+4) 1&2&6&7]
12.70
ASVVKWLWKWVWKLLK-NH2 [TP(i+4) 1&2&5&7]
1.26
ASVVKWWWKWWWKLLK-NH2 [TP(i+4) 1&2&5&6&7]
3.17
ASVVNKLTGKVAGLLK-NH2 [TP(i+4) 4]
2.83

====

Where no end group is shown, it is not given here.
Here's a batch of substances along with measured MIC, S. epidermidis 12228 for Staphylococcus epidermidis ATCC 12228.
OBSERVED PROPERTY: MIC, S. epidermidis 12228

AKVVNKLTGKVAGLLK-NH2 [TP(i+4) 3&4]
>128 µM
ASVVKWLTKWVAKLLK-NH2 [TP(i+4) 1&2&7]
4 µM
AKVVNKLTKGVAKLLK-NH2 [TP(i+4) 2&3]
>128 µM
ASVVKKLWKGVWKLLK-NH2 [TP(i+4) 1&2&5]
2 µM
ASVVNKLTKKVAKLLK-NH2 [TP(i+4) 2&4]
>128 µM
ASVVNKLTGKVAGLLK-NH2 [TP(i+4) 4]
>128 µM
ASVVKKWWKGWWKLLK-NH2 [TP(i+4) 1&2&5&6]
8 µM
ASVVKWWTKWWAKLLK-NH2 [TP(i+4) 1&2&6&7]
2 µM
ASVVKWWWKWWWKLLK-NH2 [TP(i+4) 1&2&5&6&7]
2 µM
ASVVKKLTKKVAKLLK-NH2 [TP(i+4) 1&2&4]
>128 µM
ASVVKKLTKKVAGLLK-NH2 [TP(i+4) 1&4]
>128 µM
ASVVKKWTKGWAKLLK-NH2 [TP(i+4) 1&2&6]
64 µM
AKVVNKLTGGVAGLLK-NH2 [TP(i+4) 3]
>128 µM
ASVVNKLTGGVAGLLK-NH2 [TP, reference compound]
>128 µM
AKVVNKLTKKVAKLLK-NH2 [TP(i+4) 2&3&4]
>128 µM
ASVVKWLWKWVWKLLK-NH2 [TP(i+4) 1&2&5&7]
8 µM
ASVVNKLTKGVAKLLK-NH2 [TP(i+4) 2]
>128 µM
ASVVKKLTKGVAGLLK-NH2 [TP(i+4) 1]
>128 µM
AKVVKKLTKGVAKLLK-NH2 [TP(i+4) 1&2&3]
>128 µM
AKVVKKLTKGVAGLLK-NH2 [TP(i+4) 1&3]
>128 µM
ASVVKKLTKGVAKLLK-NH2 [TP(i+4) 1&2]
>128 µM

====

# Tested on: Methicillin-resistant Staphylococcus aureus (MRSA) 43300
# RECORDED CONDITIONS: Methicillin-resistant 43300
Where no end group is shown, it is not given here.
OBSERVED PROPERTY: MIC, S. aureus 43300

AKVVNKLTKGVAKLLK-NH2 [TP(i+4) 2&3]
>128 µM
ASVVKKLTKGVAGLLK-NH2 [TP(i+4) 1]
>128 µM
AKVVNKLTGKVAGLLK-NH2 [TP(i+4) 3&4]
>128 µM
